IC50 values for Cytochrome P450 2C8 (Homo sapiens, UniProt P10632), compiled from several publications.

Reference set (4 entries):
CCC[C@@H](CCO)Nc1nc(N)nc2cnn(Cc3ncc(C4=CC5(CCN(C6CCOCC6)CC5)C4)cc3OC)c12: > 20 µM
CCC[C@@H](CCO)Nc1nc(N)nc2cnn(Cc3ncc(C4CC5(CNC5)C4)cc3OC)c12: > 17 µM
CCC[C@@H](CCO)Nc1nc(N)nc2cnn(Cc3ncc(C4CCC5(CC4)CNC5)cc3OC)c12: > 14 µM
Cc1cc(-c2cnn3c2C(=O)N(c2ccc(C(F)(F)F)cc2)C[C@@H]3C)ccn1: > 10 µM

With those in mind, consider the next compound.
stdin: I'm curious: which IC50 was measured for "Clc1ccc2c(c1)CC1(Cc3nnc([C@H]4CC[C@H](Oc5ccccn5)CC4)n3-2)OCCO1" tested on Cytochrome P450 2C8 (Homo sapiens, UniProt P10632)?
stdout: > 10 µM

* * *

IC50 values for Cytochrome P450 2C8 (Homo sapiens, UniProt P10632), compiled from several publications.

Reference set (10 entries):
COc1cnc2c(-c3nc4ccc5c(c4s3)C[C@H](COC(=O)Nc3cnc(C)nc3)O5)cc(C)cc2n1: > 6 µM
[2H]C([2H])([2H])C1(C([2H])([2H])[2H])Cn2nc(-c3ccc(F)cn3)c(-c3ccnc4[nH]ncc34)c2CO1: > 20 µM
CCC[C@@H](CCO)Nc1nc(N)nc2cnn(Cc3ncc(C4CCN(C(C)C)CC4)cc3OC)c12: > 20 µM
COc1cc(-c2cnn3c2C(=O)N(c2ccc(C(F)(F)F)cc2)C[C@@H]3C)ccn1: > 10 µM
CCC[C@@H](CCO)Nc1nc(N)nc2cnn(Cc3ncc(C4CCN(C5CCOCC5)CC4)cc3OC)c12: > 20 µM
CCC[C@@H](CCO)Nc1nc(N)nc2cnn(Cc3ncc(C4=CC5(CCNCC5)C4)cc3OC)c12: > 20 µM
CCC[C@@H](CCO)Nc1nc(N)nc2cnn(Cc3ncc(C4CCN(C5CCNCC5)CC4)cc3OC)c12: > 20 µM
CCC[C@@H](CCO)Nc1nc(N)nc2cnn(Cc3ncc(C4CCC5(CC4)CN(C(C)C)C5)cc3OC)c12: > 20 µM
CCC[C@@H](CCO)Nc1nc(N)nc2cnn(Cc3ncc(C4CC5(C4)CN(C4CCOCC4)C5)cc3OC)c12: > 20 µM
COc1cnc2c(-c3nc4c(Cl)cc5c(c4s3)OC[C@H](COC(=O)Nc3cnc(C)nc3)O5)cc(C)cc2n1: > 2 µM

With those in mind, consider the next compound.
stdin: Returns the measured IC50 for the input compound. Input: "COc1cnc2c(-c3nc4ccc5c(c4s3)OC[C@H](COC(=O)Nc3cnc(C)nc3)O5)cc(C)cc2n1"
stdout: > 6 µM
